Literature survey of Ki (system: HPK1 (Homo sapiens (Human), UniProt Q92918)).
VALUE KIND: Ki

{"SMILES STRUCTURE": "Cc1cncc(-c2ncc3[nH]nc(-c4ccc(N5CCN(C)CC5)cc4)c3n2)c1", "ASSAY VALUE": "≤ 100 nM"}
{"SMILES STRUCTURE": "COc1cccc(F)c1-c1nccc(C(=O)Nc2cc(F)c3c(cnn3CCF)c2N2C[C@@H]3C[C@H]2CN3)n1", "ASSAY VALUE": "< 100 nM"}
{"SMILES STRUCTURE": "CN1CCN(c2ccc(-c3n[nH]c4ccc(-c5cncnc5)nc34)cc2)CC1", "ASSAY VALUE": "≤ 100 nM"}
{"SMILES STRUCTURE": "COc1cccc(F)c1-c1ncc2[nH]nc(-c3ccc(C#N)cc3)c2n1", "ASSAY VALUE": "≤ 100 nM"}
{"SMILES STRUCTURE": "CNCc1cc(F)c(-c2ncc3[nH]nc(-c4ccc(C5CCOCC5)cc4)c3n2)c(F)c1", "ASSAY VALUE": "≤ 100 nM"}
{"SMILES STRUCTURE": "CN1CCN(c2ccc(-c3n[nH]c4cnc(-c5c(F)ccc6c5CCNC6)nc34)cc2)CC1", "ASSAY VALUE": "≤ 100 nM"}
{"SMILES STRUCTURE": "O=C(c1ccc(-c2cnc3c(c2Cl)C2(CC=CC2)CN3)cc1)N1CCOCC1", "ASSAY VALUE": "447 nM"}
{"SMILES STRUCTURE": "Cc1cc2cc(-c3ccc(N)c(C(=O)N(C)C)c3)cnc2[nH]1", "ASSAY VALUE": "1300 nM"}

* * *

Literature survey of Ki (system: HPK1 (Homo sapiens (Human), UniProt Q92918)).
VALUE KIND: Ki

{"MOLECULE": "COc1cccc(F)c1-c1nccc(C(=O)Nc2ccc3sc(C)nc3c2N(C)CC2CCN(C)C2)n1 (centres unmarked)", "VALUE KIND": "Ki", "ASSAY VALUE": "< 100 nM"}
{"MOLECULE": "COC(=O)c1ccccc1-c1ccc2[nH]nc(-c3ccc(N4CCN(C)CC4)cc3)c2n1", "VALUE KIND": "Ki", "ASSAY VALUE": "500 to 10000 nM"}
{"MOLECULE": "COc1cccc(F)c1-c1nccc(C(=O)Nc2ccc3c(cnn3C)c2N(C)C2CCOCC2)n1", "VALUE KIND": "Ki", "ASSAY VALUE": "≤ 100 nM"}
{"MOLECULE": "COc1cccc(F)c1-c1nccc(C(=O)Nc2cc(C)c3sc(C)nc3c2N2CC[C@H](N)C2)n1", "VALUE KIND": "Ki", "ASSAY VALUE": "< 100 nM"}
{"MOLECULE": "CC1(C#N)C(=O)Nc2ccc(-c3cnc4c(c3Cl)C3(CC3)CN4)cc21 (centres unmarked)", "VALUE KIND": "Ki", "ASSAY VALUE": "217 nM"}
{"MOLECULE": "CN(C)C(=O)c1c(N)ccc(-c2cnc3c(c2)C2(CNC(=O)C2)CN3)c1F (centres unmarked)", "VALUE KIND": "Ki", "ASSAY VALUE": "659 nM"}
{"MOLECULE": "CN1CCN(c2ccc(-c3n[nH]c4cnc(-c5c(F)cc(F)cc5F)cc34)cc2)CC1", "VALUE KIND": "Ki", "ASSAY VALUE": "≤ 100 nM"}
{"MOLECULE": "CN(Cc1cnn(C)c1)C(=O)c1cccc(-c2cnc3c(c2)C2(CC2)CN3)c1F", "VALUE KIND": "Ki", "ASSAY VALUE": "15.9 nM"}
{"MOLECULE": "CN1CCN(c2ccc(-c3n[nH]c4cc(=O)n(Cc5ccccc5)cc34)cc2)CC1", "VALUE KIND": "Ki", "ASSAY VALUE": "100 to 500 nM"}
{"MOLECULE": "CNCc1cc(C)c(-c2cc3c(-c4cnn(C5CC5)c4)n[nH]c3cc2C#N)c(F)c1", "VALUE KIND": "Ki", "ASSAY VALUE": "≤ 100 nM"}
{"MOLECULE": "Cc1cc(CNCCO)cc(F)c1-c1cc2c(-c3cnn(C)c3)n[nH]c2cn1", "VALUE KIND": "Ki", "ASSAY VALUE": "≤ 100 nM"}
{"MOLECULE": "Cc1nc2c(N3CC[C@@H](N)C3)c(NC(=O)c3ccnc(-c4c(C)cccc4F)n3)ccc2s1", "VALUE KIND": "Ki", "ASSAY VALUE": "< 100 nM"}
{"MOLECULE": "Cc1cc(CN2CCC2)cc(F)c1-c1cc2c(-c3cnn(C)c3)n[nH]c2cn1", "VALUE KIND": "Ki", "ASSAY VALUE": "≤ 100 nM"}
{"MOLECULE": "CNCc1ccccc1-c1c(NC(=O)c2ccnc(-c3c(F)cccc3OC)n2)ccc2c1cnn2C", "VALUE KIND": "Ki", "ASSAY VALUE": "≤ 100 nM"}
{"MOLECULE": "CNCc1cc(C)c(-c2cc3c(-c4ccc(N5CCC(O)CC5)nc4)n[nH]c3cc2C#N)c(F)c1", "VALUE KIND": "Ki", "ASSAY VALUE": "≤ 100 nM"}
{"MOLECULE": "COc1cccc(F)c1-c1nccc(C(=O)Nc2ccc3sc(C)nc3c2N(C)[C@@H]2CCCNC2)n1", "VALUE KIND": "Ki", "ASSAY VALUE": "< 100 nM"}
{"MOLECULE": "CC(C)NCc1cccc(-c2cc3c(-c4cnn(C)c4)n[nH]c3cn2)c1C(F)(F)F", "VALUE KIND": "Ki", "ASSAY VALUE": "≤ 100 nM"}
{"MOLECULE": "CNCc1cc(C)c(-c2ncc3[nH]nc(-c4ccc(N5CCN(C)CC5)cc4)c3n2)cn1", "VALUE KIND": "Ki", "ASSAY VALUE": "≤ 100 nM"}
{"MOLECULE": "CC1CN(C(=O)c2cccc(-c3cnc4c(c3)C3(CC3)CN4)c2F)C1", "VALUE KIND": "Ki", "ASSAY VALUE": "116 nM"}
{"MOLECULE": "Cc1cc(NC(=O)CC#N)cc(F)c1-c1cc2c(-c3cnn(C)c3)n[nH]c2cn1", "VALUE KIND": "Ki", "ASSAY VALUE": "≤ 100 nM"}
{"MOLECULE": "CNCc1cc(F)c(-c2ncc3[nH]nc(-c4ccc(C(=O)NC)c(F)c4)c3n2)c(F)c1", "VALUE KIND": "Ki", "ASSAY VALUE": "≤ 100 nM"}
{"MOLECULE": "CC(=O)Nc1ccc(-c2cnc3c(c2)C2(CC2)CN3)cc1C(F)(F)F", "VALUE KIND": "Ki", "ASSAY VALUE": "89.1 nM"}
{"MOLECULE": "CN(CCO)C(=O)c1cccc(-c2cnc3c(c2Cl)C2(CC2)CN3)c1F", "VALUE KIND": "Ki", "ASSAY VALUE": "43.7 nM"}
{"MOLECULE": "CN1CCN(c2ccc(-c3n[nH]c4ccc(-c5cccc6c5CCNC6)nc34)cc2)CC1", "VALUE KIND": "Ki", "ASSAY VALUE": "≤ 100 nM"}
{"MOLECULE": "CNC(=O)c1cn(-c2n[nH]c3cnc(-c4c(F)cccc4OC)cc23)cn1", "VALUE KIND": "Ki", "ASSAY VALUE": "≤ 100 nM"}
{"MOLECULE": "CNC1CCCc2c1cc(F)c(-c1ncc3[nH]nc(-c4ccc(N5CCOCC5)nc4)c3n1)c2F (centres unmarked)", "VALUE KIND": "Ki", "ASSAY VALUE": "≤ 100 nM"}
{"MOLECULE": "COc1cccc(F)c1-c1cc2c(NC(=O)c3ccc(N4CCN(C(C)C)CC4)cc3)n[nH]c2cn1", "VALUE KIND": "Ki", "ASSAY VALUE": "≤ 100 nM"}
{"MOLECULE": "CN1CCN(c2ccc(-c3n[nH]c4cnc(-c5c(F)cccc5C(F)(F)F)cc34)cc2)CC1", "VALUE KIND": "Ki", "ASSAY VALUE": "≤ 100 nM"}
{"MOLECULE": "Cc1[nH]c2ncc(-c3cccc(N4CCOCC4CO)n3)cc2c1C(F)(F)F (centres unmarked)", "VALUE KIND": "Ki", "ASSAY VALUE": "75 nM"}
{"MOLECULE": "CN1CCN(c2cc(-c3n[nH]c4cnc(-c5c(F)cc6c(c5F)CNCC6)nc34)ccn2)CC1", "VALUE KIND": "Ki", "ASSAY VALUE": "≤ 100 nM"}
{"MOLECULE": "Cc1cccc(F)c1-c1cc2c(NC(=O)c3ccc(N4CCN(C)CC4)cc3NCC(C)O)n[nH]c2cn1 (centres unmarked)", "VALUE KIND": "Ki", "ASSAY VALUE": "≤ 100 nM"}
{"MOLECULE": "CNC1(c2cc(F)c(-c3cc4c(-c5cnn(C)c5)n[nH]c4cn3)c(F)c2)CC1", "VALUE KIND": "Ki", "ASSAY VALUE": "≤ 100 nM"}
